molecular target: C-terminally truncated SARS-CoV-2 S protein (pSARS-CoV2-Strunc), ancestral (SARS-CoV-2, UniProt P0DTC2 14-1273); assay: cell-based or functional assay
MEASUREMENT KIND: Ancestral Pseudovirus IC50 (ng/mL)
Enter your answer as a number in ng/mL; do not include the unit.

Example cases with answers are listed next.
[
  {
    "BINDER": "hr2.090 (antibody, V domains shown) VH: EVQLLESGGGLVQPGGSLRLSCAASGVTFSRYAMSWVRQAPGKGLEWVSTISGGGGGTYYADSVKGRFTISRDNSKNTLYLQMNSLRAEDTAVYYCATLLTVPGPYYFEYWGQGTLVTVSS VL: EIVLTQSPGTLSLSPGERATLSCRASQSVSSSYLAWYQQKPGQAPRLLIYGASSRATGIPDRFSGSGSGTDFTLTISRLESEDFAVYYCQHSRFTFGPGTRVDIK",
    "VALUE OBSERVED": 1020
  },
  {
    "BINDER": "hr2.019 (antibody, V domains shown) VH: EVQLVESGGGLVKPGGSLRLSCAASGSSVIDVWMNWVRQAPGKGLEWVGRIKTKASGAATDYGAPVKGRFTISRDDSKNLSYLQMNSLRAEDTGIYYCTTSPLPNFDYWGRGTLVTVSS VL: DIVMTQSPDFLAVSLGETATINCRSSQSVFYFANNKNYLAWYQQKPGQPPKLLIYWASKRESGVPDRFSGSGSGTDFTLTISSLQAEDVATYYCQQYSSPAITFGPGTKVDIK",
    "VALUE OBSERVED": 1220
  },
  {
    "BINDER": "hr2.016 (antibody, V domains shown) VH: EVQLLESGGGLVQPGGSLRLSCAASGFMFSKYAMTWVRQTPGKGLEWVSVISGGGGSTYYADSVKGRFTISRDNSKNTLYLQMNSLRAEDTAVYYCAKLLVVFVIDYWGQGALVTVSS VL: EIVLTQSPGTLSLSPGERATLFCRASQSVSSNLAWYQQKPGRAPRLLISGASSRATGIPDRFSGSGSGTDFTLTISRLEPEDFAVYYCQQYGSSPPTFGQGTKVEIK",
    "VALUE OBSERVED": 10
  },
  {
    "BINDER": "hr2.024 (antibody, V domains shown) VH: QVQLVQSGAEVKKPGASVKVSCKASEDIFTDSYLHWVRQAPGQGLEWMGIITPSGDKTFYAQQFQGRLTMTRDPSTNTLYMFLSGLRSDDTAMYFCARQAEKGGWDYWGHGTLVTVSS VL: EIVLTQSPGTLSLSPGQRATLSCRSSQTITSNYLAWYQQRPGQAPRLLIYGASIRATGIPDRFSGSGSGTDFTLTISRLEPEDFAVYYCQQYGSSPPTFIFGPGTKVDIK",
    "VALUE OBSERVED": 301
  },
  {
    "BINDER": "hr2.017 (antibody, V domains shown) VH: EVQLVESGGGLVQPGGSLRLSCAVSGFAFSSSWMHWIRQAPGRGLVWVSRINRDGSTTDYADSVKGRFTISRDNAKATLYLQMNSLRAEDTAVYYCATMGFDYWGQGALVTVSS VL: DIVMTQSPDSLAVSLGERATINCKSSQNVLYSSNNKNHLSWYQQKPGQPPKLLIYWASTRKSGVPDRFSGSGSGTDFTLTINSLQAEDVAVYYCQQYFSTPNTFGQGTKLEIK",
    "VALUE OBSERVED": 542
  }
]

For the next question, use this binder.
Input line: // query Ancestral Pseudovirus IC50 value for entry hr2.012 (antibody, V domains shown) VH: QVQLVQSGAEVKKPGASVKVSCKASGYTFTSHYIHWVRQAPGQGLEWMGIIKPSGGNTIYAQTFQGRVTMTRDTSTSTVYMELRSLTSDDTAVYYCARDQDHGLQRWGQGTLVTVSS VL: QSVLTQPPSVSAPPGQKVTISCSGSSSNIGNNFVSWYQQLPGTAPKLLIYDNIERPSGIPDRFSGSRSGTSATLGITGLQTGDEADYYCGTWDTSLGAWVFGGGTKVTVL
Output line: 1720
